assay_target: MAPK15 (human) (UniProt Q8TD08)
Sequence (Q8TD08 whole entry, looked up): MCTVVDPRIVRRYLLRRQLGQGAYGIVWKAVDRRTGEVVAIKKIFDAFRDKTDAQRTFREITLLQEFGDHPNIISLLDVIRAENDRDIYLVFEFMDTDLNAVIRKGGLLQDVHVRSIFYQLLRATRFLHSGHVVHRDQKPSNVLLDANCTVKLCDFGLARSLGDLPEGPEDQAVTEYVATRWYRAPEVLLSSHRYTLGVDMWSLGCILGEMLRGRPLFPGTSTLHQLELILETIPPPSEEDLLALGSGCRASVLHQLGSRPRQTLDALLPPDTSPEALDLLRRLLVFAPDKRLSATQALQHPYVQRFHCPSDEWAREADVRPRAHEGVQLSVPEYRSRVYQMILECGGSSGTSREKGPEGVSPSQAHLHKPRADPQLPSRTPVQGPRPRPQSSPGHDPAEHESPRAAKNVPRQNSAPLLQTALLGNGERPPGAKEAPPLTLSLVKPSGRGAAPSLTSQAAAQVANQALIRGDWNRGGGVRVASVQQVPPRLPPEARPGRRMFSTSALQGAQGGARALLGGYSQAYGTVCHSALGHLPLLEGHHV

[
  {
    "query_smiles": "CN(C)C/C=C/C(=O)Nc1cccc(C(=O)Nc2ccc(Nc3nccc(-c4cccnc4)n3)cc2)c1",
    "IC50 [nM]": 183
  }
]

---

assay_target: FLT4 (human) (UniProt P35916)
Sequence (P35916 whole entry, looked up): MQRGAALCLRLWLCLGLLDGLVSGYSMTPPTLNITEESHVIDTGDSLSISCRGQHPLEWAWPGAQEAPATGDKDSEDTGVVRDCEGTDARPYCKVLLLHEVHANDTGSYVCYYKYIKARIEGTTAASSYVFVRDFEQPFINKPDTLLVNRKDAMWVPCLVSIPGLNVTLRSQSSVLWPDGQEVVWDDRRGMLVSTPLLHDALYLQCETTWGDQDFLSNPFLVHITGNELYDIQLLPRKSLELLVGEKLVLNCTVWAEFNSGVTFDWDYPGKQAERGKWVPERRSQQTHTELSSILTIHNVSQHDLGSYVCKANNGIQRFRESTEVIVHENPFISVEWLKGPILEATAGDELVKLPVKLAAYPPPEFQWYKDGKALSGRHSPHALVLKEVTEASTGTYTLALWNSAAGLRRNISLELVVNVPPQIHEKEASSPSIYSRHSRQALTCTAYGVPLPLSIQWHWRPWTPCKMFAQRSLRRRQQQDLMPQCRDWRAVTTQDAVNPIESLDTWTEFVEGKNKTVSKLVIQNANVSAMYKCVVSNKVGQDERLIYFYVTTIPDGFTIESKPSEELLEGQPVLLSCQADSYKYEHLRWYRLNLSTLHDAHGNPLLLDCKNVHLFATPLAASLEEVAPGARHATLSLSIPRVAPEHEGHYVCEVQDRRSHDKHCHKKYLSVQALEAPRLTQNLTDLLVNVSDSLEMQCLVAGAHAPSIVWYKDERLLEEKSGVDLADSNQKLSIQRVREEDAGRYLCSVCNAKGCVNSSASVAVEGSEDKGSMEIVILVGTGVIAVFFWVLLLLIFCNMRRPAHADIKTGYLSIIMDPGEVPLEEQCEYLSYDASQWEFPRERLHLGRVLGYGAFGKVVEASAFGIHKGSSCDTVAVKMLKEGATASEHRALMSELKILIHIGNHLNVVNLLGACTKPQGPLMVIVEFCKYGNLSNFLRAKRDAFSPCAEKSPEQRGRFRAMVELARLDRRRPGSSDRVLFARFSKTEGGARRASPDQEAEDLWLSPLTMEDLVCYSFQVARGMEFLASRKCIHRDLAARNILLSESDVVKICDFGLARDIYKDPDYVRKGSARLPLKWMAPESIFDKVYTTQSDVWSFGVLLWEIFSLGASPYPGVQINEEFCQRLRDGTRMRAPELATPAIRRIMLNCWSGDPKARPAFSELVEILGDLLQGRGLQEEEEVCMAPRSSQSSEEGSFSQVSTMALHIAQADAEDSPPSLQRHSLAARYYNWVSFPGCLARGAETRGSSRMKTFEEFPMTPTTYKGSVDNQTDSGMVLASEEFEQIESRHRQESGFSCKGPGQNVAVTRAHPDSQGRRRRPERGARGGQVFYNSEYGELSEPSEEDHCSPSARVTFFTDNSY
experimental_details: KINOMEscan competition binding
experimental_context: compound 1.0 µM

[
  {
    "query_smiles": "CN(C)C/C=C/C(=O)Nc1cccc(C(=O)Nc2ccc(Nc3nccc(-c4c(-c5ccccc5)nn5ccccc45)n3)cc2)c1",
    "kinase still bound, per cent of control / %": 7.8
  },
  {
    "query_smiles": "Cc1cc(NC(=O)c2cccc(NC(=O)/C=C/CN(C)C)c2)ccc1Nc1nccc(-c2cccnc2)n1",
    "kinase still bound, per cent of control / %": 100
  },
  {
    "query_smiles": "CN(C)C/C=C/C(=O)Nc1cccc(C(=O)Nc2ccc(Nc3nccc(-c4cccnc4)n3)cc2)c1",
    "kinase still bound, per cent of control / %": 95
  },
  {
    "query_smiles": "CN(C)C/C=C/C(=O)Nc1cccc(C(=O)Nc2ccc(Nc3nccc(/C(C#N)=C4\\Nc5ccccc5S4)n3)cc2)c1",
    "kinase still bound, per cent of control / %": 78
  }
]

---

This section presents molecules with their documented kinase still bound, per cent of control values.
assay_target: PRKX (human)
experimental_details: KINOMEscan competition binding
experimental_context: compound 1.0 µM

[
  {
    "query_smiles": "Cc1cc(NC(=O)c2cccc(NC(=O)/C=C/CN(C)C)c2)ccc1Nc1nccc(-c2cccnc2)n1",
    "assay_target": "PRKX (human)",
    "kinase still bound, per cent of control / %": 0
  },
  {
    "query_smiles": "CN(C)C/C=C/C(=O)Nc1cccc(C(=O)Nc2ccc(Nc3nccc(-c4cccnc4)n3)cc2)c1",
    "assay_target": "PRKX (human)",
    "kinase still bound, per cent of control / %": 96
  },
  {
    "query_smiles": "CN(C)C/C=C/C(=O)Nc1cccc(C(=O)Nc2ccc(Nc3nccc(/C(C#N)=C4\\Nc5ccccc5S4)n3)cc2)c1",
    "assay_target": "PRKX (human)",
    "kinase still bound, per cent of control / %": 82
  },
  {
    "query_smiles": "CN(C)C/C=C/C(=O)Nc1cccc(C(=O)Nc2ccc(Nc3nccc(-c4c(-c5ccccc5)nn5ccccc45)n3)cc2)c1",
    "assay_target": "PRKX (human)",
    "kinase still bound, per cent of control / %": 94
  }
]

---

assay_target: SRC (human) (UniProt P12931)
Sequence (P12931 whole entry, looked up): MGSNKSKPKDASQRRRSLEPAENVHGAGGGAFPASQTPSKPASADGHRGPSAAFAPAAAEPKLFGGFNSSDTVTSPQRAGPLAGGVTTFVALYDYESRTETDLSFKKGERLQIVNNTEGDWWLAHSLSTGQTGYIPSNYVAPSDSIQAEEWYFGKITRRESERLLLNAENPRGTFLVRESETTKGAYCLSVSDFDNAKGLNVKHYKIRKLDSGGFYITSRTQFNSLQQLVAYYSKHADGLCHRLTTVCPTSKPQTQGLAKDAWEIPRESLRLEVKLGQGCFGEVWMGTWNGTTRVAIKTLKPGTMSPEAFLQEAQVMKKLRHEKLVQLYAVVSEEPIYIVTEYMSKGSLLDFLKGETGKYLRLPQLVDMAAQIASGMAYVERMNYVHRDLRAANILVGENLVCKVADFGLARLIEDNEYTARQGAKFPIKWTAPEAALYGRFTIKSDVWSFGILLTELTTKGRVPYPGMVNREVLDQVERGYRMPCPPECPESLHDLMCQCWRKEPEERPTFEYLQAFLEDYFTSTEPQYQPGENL
experimental_details: KINOMEscan competition binding
experimental_context: compound 1.0 µM
This section presents molecules with their documented kinase still bound, per cent of control values.

[
  {
    "query_smiles": "CN(C)C/C=C/C(=O)Nc1cccc(C(=O)Nc2ccc(Nc3nccc(/C(C#N)=C4\\Nc5ccccc5S4)n3)cc2)c1",
    "kinase still bound, per cent of control / %": 100
  },
  {
    "query_smiles": "CN(C)C/C=C/C(=O)Nc1cccc(C(=O)Nc2ccc(Nc3nccc(-c4c(-c5ccccc5)nn5ccccc45)n3)cc2)c1",
    "kinase still bound, per cent of control / %": 18
  },
  {
    "query_smiles": "CN(C)C/C=C/C(=O)Nc1cccc(C(=O)Nc2ccc(Nc3nccc(-c4cccnc4)n3)cc2)c1",
    "kinase still bound, per cent of control / %": 88
  },
  {
    "query_smiles": "Cc1cc(NC(=O)c2cccc(NC(=O)/C=C/CN(C)C)c2)ccc1Nc1nccc(-c2cccnc2)n1",
    "kinase still bound, per cent of control / %": 87
  }
]

---

assay_target: PTK6 (human) (UniProt Q13882)
Sequence (Q13882 whole entry, looked up): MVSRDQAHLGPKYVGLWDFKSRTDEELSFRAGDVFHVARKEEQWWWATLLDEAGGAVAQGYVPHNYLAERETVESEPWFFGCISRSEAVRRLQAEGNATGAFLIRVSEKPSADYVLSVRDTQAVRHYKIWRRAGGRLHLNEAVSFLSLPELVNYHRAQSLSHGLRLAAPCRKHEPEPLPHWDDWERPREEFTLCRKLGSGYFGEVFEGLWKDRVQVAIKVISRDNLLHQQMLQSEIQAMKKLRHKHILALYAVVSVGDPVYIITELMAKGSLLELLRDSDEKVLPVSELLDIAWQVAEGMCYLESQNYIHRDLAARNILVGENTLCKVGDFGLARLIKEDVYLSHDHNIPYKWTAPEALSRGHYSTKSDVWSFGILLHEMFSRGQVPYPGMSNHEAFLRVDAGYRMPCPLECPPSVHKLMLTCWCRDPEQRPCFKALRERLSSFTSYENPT
experimental_details: KINOMEscan competition binding
experimental_context: compound 1.0 µM

[
  {
    "query_smiles": "Cc1cc(NC(=O)c2cccc(NC(=O)/C=C/CN(C)C)c2)ccc1Nc1nccc(-c2cccnc2)n1",
    "kinase still bound, per cent of control, %": 100
  },
  {
    "query_smiles": "CN(C)C/C=C/C(=O)Nc1cccc(C(=O)Nc2ccc(Nc3nccc(-c4cccnc4)n3)cc2)c1",
    "kinase still bound, per cent of control, %": 77
  },
  {
    "query_smiles": "CN(C)C/C=C/C(=O)Nc1cccc(C(=O)Nc2ccc(Nc3nccc(/C(C#N)=C4\\Nc5ccccc5S4)n3)cc2)c1",
    "kinase still bound, per cent of control, %": 100
  },
  {
    "query_smiles": "CN(C)C/C=C/C(=O)Nc1cccc(C(=O)Nc2ccc(Nc3nccc(-c4c(-c5ccccc5)nn5ccccc45)n3)cc2)c1",
    "kinase still bound, per cent of control, %": 82
  }
]

---

assay_target: CLK4 (human)
experimental_details: KINOMEscan competition binding
experimental_context: compound 1.0 µM
measurement_label: kinase still bound, per cent of control

[
  {
    "query_smiles": "CN(C)C/C=C/C(=O)Nc1cccc(C(=O)Nc2ccc(Nc3nccc(-c4cccnc4)n3)cc2)c1",
    "assay_target": "CLK4 (human)",
    "recorded_value": "16%"
  },
  {
    "query_smiles": "Cc1cc(NC(=O)c2cccc(NC(=O)/C=C/CN(C)C)c2)ccc1Nc1nccc(-c2cccnc2)n1",
    "assay_target": "CLK4 (human)",
    "recorded_value": "93%"
  },
  {
    "query_smiles": "CN(C)C/C=C/C(=O)Nc1cccc(C(=O)Nc2ccc(Nc3nccc(/C(C#N)=C4\\Nc5ccccc5S4)n3)cc2)c1",
    "assay_target": "CLK4 (human)",
    "recorded_value": "64%"
  },
  {
    "query_smiles": "CN(C)C/C=C/C(=O)Nc1cccc(C(=O)Nc2ccc(Nc3nccc(-c4c(-c5ccccc5)nn5ccccc45)n3)cc2)c1",
    "assay_target": "CLK4 (human)",
    "recorded_value": "100%"
  }
]

---

assay_target: KDR (human) (UniProt P35968)
Sequence (P35968 whole entry, looked up): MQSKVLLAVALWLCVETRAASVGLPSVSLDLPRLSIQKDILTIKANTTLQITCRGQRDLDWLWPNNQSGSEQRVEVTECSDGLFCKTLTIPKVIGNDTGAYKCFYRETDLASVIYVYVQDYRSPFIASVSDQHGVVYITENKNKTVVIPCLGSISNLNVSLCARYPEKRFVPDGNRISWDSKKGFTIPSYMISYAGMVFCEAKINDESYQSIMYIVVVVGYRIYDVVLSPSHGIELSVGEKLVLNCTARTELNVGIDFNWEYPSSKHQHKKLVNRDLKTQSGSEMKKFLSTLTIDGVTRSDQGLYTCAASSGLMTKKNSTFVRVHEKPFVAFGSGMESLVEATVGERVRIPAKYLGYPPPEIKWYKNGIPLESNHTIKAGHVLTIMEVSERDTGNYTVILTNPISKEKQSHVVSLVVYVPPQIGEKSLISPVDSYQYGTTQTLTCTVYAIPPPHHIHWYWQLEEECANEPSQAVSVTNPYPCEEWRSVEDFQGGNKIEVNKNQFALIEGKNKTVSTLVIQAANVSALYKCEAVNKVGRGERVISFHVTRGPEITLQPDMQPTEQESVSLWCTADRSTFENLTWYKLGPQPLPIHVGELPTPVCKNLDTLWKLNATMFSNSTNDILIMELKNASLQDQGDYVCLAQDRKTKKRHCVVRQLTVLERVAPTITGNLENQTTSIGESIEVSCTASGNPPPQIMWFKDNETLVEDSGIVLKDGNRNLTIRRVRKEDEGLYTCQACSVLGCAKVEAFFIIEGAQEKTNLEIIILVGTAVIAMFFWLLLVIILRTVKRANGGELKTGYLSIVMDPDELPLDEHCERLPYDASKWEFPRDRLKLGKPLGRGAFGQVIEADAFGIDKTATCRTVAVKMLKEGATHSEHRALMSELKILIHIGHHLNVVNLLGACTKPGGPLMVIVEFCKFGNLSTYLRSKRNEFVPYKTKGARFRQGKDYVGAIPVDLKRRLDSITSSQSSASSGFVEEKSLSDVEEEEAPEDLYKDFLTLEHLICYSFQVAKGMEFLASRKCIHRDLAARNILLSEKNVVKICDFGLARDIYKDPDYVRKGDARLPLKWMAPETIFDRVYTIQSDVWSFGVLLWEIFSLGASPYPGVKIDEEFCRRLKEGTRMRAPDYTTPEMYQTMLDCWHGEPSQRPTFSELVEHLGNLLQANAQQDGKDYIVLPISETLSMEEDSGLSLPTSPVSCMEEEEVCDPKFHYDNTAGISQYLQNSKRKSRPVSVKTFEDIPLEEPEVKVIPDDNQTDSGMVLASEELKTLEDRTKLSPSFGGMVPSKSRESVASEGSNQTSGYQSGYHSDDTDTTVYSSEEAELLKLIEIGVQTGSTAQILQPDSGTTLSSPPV
experimental_details: KINOMEscan competition binding
experimental_context: compound 1.0 µM
This section presents compounds with their documented kinase still bound, per cent of control values.

[
  {
    "query_smiles": "CN(C)C/C=C/C(=O)Nc1cccc(C(=O)Nc2ccc(Nc3nccc(-c4c(-c5ccccc5)nn5ccccc45)n3)cc2)c1",
    "kinase still bound, per cent of control, %": 17
  },
  {
    "query_smiles": "CN(C)C/C=C/C(=O)Nc1cccc(C(=O)Nc2ccc(Nc3nccc(-c4cccnc4)n3)cc2)c1",
    "kinase still bound, per cent of control, %": 100
  },
  {
    "query_smiles": "CN(C)C/C=C/C(=O)Nc1cccc(C(=O)Nc2ccc(Nc3nccc(/C(C#N)=C4\\Nc5ccccc5S4)n3)cc2)c1",
    "kinase still bound, per cent of control, %": 55
  },
  {
    "query_smiles": "Cc1cc(NC(=O)c2cccc(NC(=O)/C=C/CN(C)C)c2)ccc1Nc1nccc(-c2cccnc2)n1",
    "kinase still bound, per cent of control, %": 96
  }
]

---

assay_target: CDC42BPB (human) (UniProt Q9Y5S2)
experimental_details: KINOMEscan competition binding
experimental_context: compound 1.0 µM
This section presents compounds with their documented kinase still bound, per cent of control values.

[
  {
    "query_smiles": "CN(C)C/C=C/C(=O)Nc1cccc(C(=O)Nc2ccc(Nc3nccc(-c4c(-c5ccccc5)nn5ccccc45)n3)cc2)c1",
    "assay_target": "CDC42BPB (human) (UniProt Q9Y5S2)",
    "kinase still bound, per cent of control, %": 16
  },
  {
    "query_smiles": "CN(C)C/C=C/C(=O)Nc1cccc(C(=O)Nc2ccc(Nc3nccc(-c4cccnc4)n3)cc2)c1",
    "assay_target": "CDC42BPB (human) (UniProt Q9Y5S2)",
    "kinase still bound, per cent of control, %": 93
  },
  {
    "query_smiles": "CN(C)C/C=C/C(=O)Nc1cccc(C(=O)Nc2ccc(Nc3nccc(/C(C#N)=C4\\Nc5ccccc5S4)n3)cc2)c1",
    "assay_target": "CDC42BPB (human) (UniProt Q9Y5S2)",
    "kinase still bound, per cent of control, %": 100
  },
  {
    "query_smiles": "Cc1cc(NC(=O)c2cccc(NC(=O)/C=C/CN(C)C)c2)ccc1Nc1nccc(-c2cccnc2)n1",
    "assay_target": "CDC42BPB (human) (UniProt Q9Y5S2)",
    "kinase still bound, per cent of control, %": 68
  }
]

---

assay_target: UniProtKB P49674
Sequence (P49674 whole entry, looked up): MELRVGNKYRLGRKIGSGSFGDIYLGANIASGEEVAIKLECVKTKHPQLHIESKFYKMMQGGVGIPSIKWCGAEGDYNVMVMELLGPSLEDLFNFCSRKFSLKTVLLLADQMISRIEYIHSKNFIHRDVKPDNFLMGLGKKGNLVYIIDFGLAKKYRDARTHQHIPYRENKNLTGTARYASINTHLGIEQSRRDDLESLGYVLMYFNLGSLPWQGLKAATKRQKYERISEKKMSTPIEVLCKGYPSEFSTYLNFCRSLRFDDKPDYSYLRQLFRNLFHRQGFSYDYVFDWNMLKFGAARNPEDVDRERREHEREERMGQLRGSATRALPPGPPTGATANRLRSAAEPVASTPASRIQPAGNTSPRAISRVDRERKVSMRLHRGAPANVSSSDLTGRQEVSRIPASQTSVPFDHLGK
experimental_details: KINOMEscan competition binding
experimental_context: compound 1.0 µM
This section presents compounds with their documented kinase still bound, per cent of control values.
measurement_label: kinase still bound, per cent of control (%)

[
  {
    "query_smiles": "CN(C)C/C=C/C(=O)Nc1cccc(C(=O)Nc2ccc(Nc3nccc(/C(C#N)=C4\\Nc5ccccc5S4)n3)cc2)c1",
    "measurement_label": "kinase still bound, per cent of control",
    "unit": "%",
    "recorded_value": 41
  },
  {
    "query_smiles": "Cc1cc(NC(=O)c2cccc(NC(=O)/C=C/CN(C)C)c2)ccc1Nc1nccc(-c2cccnc2)n1",
    "measurement_label": "kinase still bound, per cent of control",
    "unit": "%",
    "recorded_value": 70
  },
  {
    "query_smiles": "CN(C)C/C=C/C(=O)Nc1cccc(C(=O)Nc2ccc(Nc3nccc(-c4c(-c5ccccc5)nn5ccccc45)n3)cc2)c1",
    "measurement_label": "kinase still bound, per cent of control",
    "unit": "%",
    "recorded_value": 0
  },
  {
    "query_smiles": "CN(C)C/C=C/C(=O)Nc1cccc(C(=O)Nc2ccc(Nc3nccc(-c4cccnc4)n3)cc2)c1",
    "measurement_label": "kinase still bound, per cent of control",
    "unit": "%",
    "recorded_value": 6.8
  }
]
